test system: UACC-62 melanoma; assay: NCI-60 one-dose screen, 48 h; conditions: 10 µM unless noted
This is part of a sample that, as a whole, favours compounds with a hit. Of some 83,000 tested, about 20% had one in any assay. The source made the active and inactive calls. How the source made its calls: active means growth percent below 10; inactive means the rest.
The reply should name one outcome from yes = active, no = inactive

Field: example entries. Status: answers known.
Q: Please let me know the test result on file for Cn1c(SCC(=O)c2ccc(F)cc2)nc2ccccc2c1=O .
Ans: no

Q: Please let me know the test result on file for Brc1cc(-c2cc(-c3ccc4c(c3)OCCO4)[nH]n2)cs1 .
Ans: no

Next:
Q: Please let me know the test result on file for C#CCn1cc(/C=N/Nc2nc(-c3ccc(Br)cc3)cs2)c2ccccc21 .
Ans: no

Q: Please let me know the test result on file for CNC(=O)c1cc(N2CCc3cc(NC(=O)Nc4ccc(N5CCN(C)CC5)c(C(F)(F)F)c4)ccc32)ccn1 .
Ans: no

Q: Please let me know the test result on file for COC(=O)[C@@H](Cc1c[nH]c2ccccc12)NC(=O)CCCCOc1cc(O)c2c(=O)cc(-c3ccccc3)oc2c1 .
Ans: no

Q: Please let me know the test result on file for O=S(=O)(NCCCNc1nccc(-c2[nH]c(-c3ccccc3)nc2-c2ccc(F)c(O)c2)n1)c1ccccc1 .
Ans: no

Q: Please let me know the test result on file for COc1cc2cc(Oc3ccc(NC(=O)Nc4ccc(F)c(C(F)(F)F)c4)cc3)c(C)nc2cc1OCCN(C)C .
Ans: no

Q: Please let me know the test result on file for CC(=C(c1ccc(OCCN2CCCC2)cc1)c1ccc(OCCN2CCCC2)cc1)c1ccc(Cl)cc1 .
Ans: yes

Q: Please let me know the test result on file for Cc1ccc2c(n1)C(=O)C(Cl)=C(Nc1ccc(C)c(C)c1)C2=O .
Ans: no
